Test: Pharmacokinetics: plasma levels of valproic acid in Sprague-Dawley rats
Assay type: in vivo
Conditions: in vivo, 1390 umol/kg; rat, oral, from AUC versus i.v.; read-out: Absolute biodisponibility
Method: The test tubes are then removed from the ice and are stirred for a period of ten minutes. Centrifugation is carried out for the purpose of separating the phases and the organic phase in n-hexane is directly injected into the gas-chromatographic apparatus. The study of plasma levels is carried out on Sprague-Dawley albino rats of an average body weight of 215 grams (200-230). […] The concentration of the solution is calculated in a manner to administer 2 cc/kg. […]
test-readout: bioavailability

Asked: What bioavailability value was documented for this compound, CCCC(CCC)C(=O)[O-].[Na+] [sodium valproate, reference compound] ?
Given back: 49.9%

---

Experiment: Acute toxicity in Swiss albino mice (Lichtfield and Wilcoxon)
Details: in vivo; mouse, oral, mortality within 8 days; read-out: DL50 and range
test-readout: LD50 at 192 h (mg/kg)
Give just the numeric value; mg/kg need not be written.

Asked: What LD50 at 192 h value was documented for this compound, CCCC(CCC)C(=O)OCOC(=O)C(C)(C)C [PEV, pivaloyloxymethyl 2-propyl-pentanoate] ?
Given back: 1210

---

Experiment: Acute toxicity in Swiss albino mice (Lichtfield and Wilcoxon)
Conditions: in vivo, ip; mouse, endoperitoneal, mortality within 8 days; read-out: DL50 and range
test-readout: LD50 at 192 h
The answer consists of two parts: a number and, after it, its unit.

Asked: What LD50 at 192 h value was documented for this compound, CCCC(CCC)C(=O)OCOC(=O)C(C)(C)C [PEV, pivaloyloxymethyl 2-propyl-pentanoate] ?
Given back: 510 mg/kg

The measured values listed here are drawn from patent US4442124A.
